# test.target: Tau P301L (Homo sapiens, UniProt P10636, P618L)
# Construct: expressed in transfected cells
# Sequence (P10636 1-441 isoform P10636-8 P301L): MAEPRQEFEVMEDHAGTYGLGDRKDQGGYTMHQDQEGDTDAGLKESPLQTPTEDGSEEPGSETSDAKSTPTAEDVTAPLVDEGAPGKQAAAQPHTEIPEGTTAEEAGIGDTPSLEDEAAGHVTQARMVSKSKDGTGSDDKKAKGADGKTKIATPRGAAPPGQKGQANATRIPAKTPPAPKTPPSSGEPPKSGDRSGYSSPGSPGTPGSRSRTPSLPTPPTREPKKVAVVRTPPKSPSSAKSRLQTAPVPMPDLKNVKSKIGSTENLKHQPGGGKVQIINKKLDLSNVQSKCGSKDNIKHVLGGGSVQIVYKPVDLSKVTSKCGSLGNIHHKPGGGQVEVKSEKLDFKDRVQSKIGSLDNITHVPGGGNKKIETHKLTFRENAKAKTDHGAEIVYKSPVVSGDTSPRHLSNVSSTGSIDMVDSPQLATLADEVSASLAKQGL
# protocol.description: In vitro tau degradation assay in CHOK1 Tau P301L cells (sarkosyl insoluble tau, WES)
# Assay type: cell-based
# experimental.parameters: CHO-K1; CHOK1 Tau P301L cells; remaining tau in sarkosyl insoluble pellet; 48 hours with test compound at 1 μM, doxycycline removed for last 24 hours; relative to DMSO doxycycline control; read-out: Tau Protein Degradation effect at 1 μM
outcome.measure: remaining activity at 1 µM

The cases that follow already have their remaining activity at 1 µM on record.
O=C1CCC(N2C(=O)c3ccc(N4CCN(CCC5CCN(Cc6ncc(-c7ccc8c9cnccc9n(C(F)F)c8c7)cc6F)CC5)CC4)cc3C2=O)C(=O)N1 (centres unmarked) :: < 50%
COc1ccc2nc(/C=C/C=C/c3ccc(OCCOCCOCCOCCOc4ccc5c(c4)C(=O)N(C4CCC(=O)NC4=O)C5=O)nc3)sc2c1 (centres unmarked) :: < 50%
CC(C)N(C1CCN(c2ncc(-c3ccc4c5cnccc5n(C(F)F)c4c3)cc2F)CC1)[C@H]1C[C@H](Oc2ccc3c(c2)C(=O)N(C2CCC(=O)NC2=O)C3=O)C1 (some centres unmarked) :: < 50%
CN1CCc2[nH]c3cc(-c4cnc(N5CCC(CCN6CCN(c7cc8c(cc7F)C(=O)N(C7CCC(=O)NC7=O)C8=O)CC6)CC5)c(F)c4)ccc3c2C1 (centres unmarked) :: > 50%
CC(C)(C1CCN(c2ncc(-c3ccc4c5cnccc5n(C(F)F)c4c3)cc2F)CC1)N1CCN(c2ccc3c(c2)C(=O)N(C2CCC(=O)NC2=O)C3=O)CC1 (centres unmarked) :: < 50%

# evaluate next
Query: remaining activity at 1 µM; subject: O=C1CCC(N2C(=O)c3ccc(N4CCN(CC5CC6(CCN(c7ncc(-c8ccc9c%10cnccc%10n(C(F)F)c9c8)cc7F)CC6)C5)CC4)cc3C2=O)C(=O)N1 (centres unmarked)
> 50%
